protocol_description: AUC (0 to t) in C57BL/6 mouse at 1 mg/kg, iv measured upto 24 hrs by LC-MS/MS analysis
Type: ADME, organism-based
study_conditions: in vivo
quantity_measured: AUC(0-t) at 24 h (ng·h/mL)
Express your answer in ng·h/mL, writing the number without its unit.

Name the recorded AUC(0-t) at 24 h for CNC(=O)/C=C/CNC(=O)c1ccc([N+](=O)[O-])s1 . 333

----------
protocol_description: Tmax in mouse at 25 mg/kg, po
Assay type: ADME, organism-based
study_conditions: in vivo
quantity_measured: Tmax
Don't forget the unit after the value.

Name the recorded Tmax for CSc1ccc(OCc2ncc([N+](=O)[O-])n2C)cc1 . 15 min

----------
Test system: Trypanosoma brucei rhodesiense
protocol_description: Inhibition of Trypanosoma brucei rhodesiense MVAT4 strain Cathepsin-L expressed in Pichia pastoris at 10 uM relative to control
Reported inhibition values follow for various molecules

O=C(NCCCS(=O)(=O)c1ccccc1)c1ccc([N+](=O)[O-])o1: 15%
CS(=O)(=O)/C=C/CNC(=O)c1cccs1: 23.6%
CNC(=O)/C=C/[C@H](CCc1ccccc1)NC(=O)c1ccc([N+](=O)[O-])o1: 54.8%

Name the recorded inhibition for CS(=O)(=O)CCCNC(=O)c1ccc([N+](=O)[O-])s1 . 11.1%

Name the recorded inhibition for CNC(=O)/C=C/CNC(=O)c1ccc([N+](=O)[O-])s1 . 43.9%

Name the recorded inhibition for O=C(N[C@H](/C=C/S(=O)(=O)c1ccccc1)CCc1ccccc1)c1ccc([N+](=O)[O-])o1 . 78.1%

----------
protocol_description: Cmax in C57BL/6 mouse at 5 mg/kg, po measured upto 24 hrs by LC-MS/MS analysis
study_conditions: in vivo
quantity_measured: Cmax

Name the recorded Cmax for CNC(=O)/C=C/CNC(=O)c1ccc([N+](=O)[O-])s1 . 1650 ng/mL

----------
protocol_description: Half life in mouse at 25 mg/kg, po
Type: ADME, organism-based
study_conditions: in vivo
quantity_measured: half-life (min)
Express your answer in min, writing the number without its unit.

Name the recorded half-life for CSc1ccc(OCc2ncc([N+](=O)[O-])n2C)cc1 [FEXINIDAZOLE] . 48

----------
protocol_description: Selectivity index, ratio of CC50 for cytotoxicity against human HepG2 cells to EC50 for Antitrypanosomal activity against bloodstream forms of Trypanosoma brucei rhodesiense STIB 900
Format: toxicity, cell-based
quantity_measured: selectivity ratio
Lab note: jot the number down without any unit.

Recorded results for 4 compounds are shown here.
CNC(=O)/C=C/[C@H](CCc1ccccc1)NC(=O)c1ccc([N+](=O)[O-])o1: 298
CNC(=O)/C=C/[C@H](CCc1ccccc1)NC(=O)c1ccc([N+](=O)[O-])s1: 1500
CS(=O)(=O)/C=C/CNC(=O)c1ccc([N+](=O)[O-])s1: 822
O=C(NC/C=C/S(=O)(=O)c1ccccc1)c1ccc([N+](=O)[O-])o1: 33.5

Consider the record given below.
Name the recorded selectivity ratio for CNC(=O)CCCNC(=O)c1ccc([N+](=O)[O-])s1 . 35.5

----------
Tested on: Trypanosoma brucei rhodesiense
protocol_description: Inhibition of Trypanosoma brucei rhodesiense MVAT4 strain Cathepsin-L expressed in Pichia pastoris at 10 uM relative to control
quantity_measured: inhibition

Recorded results for 5 molecules are shown here.
CNC(=O)/C=C/CNC(=O)c1ccc([N+](=O)[O-])o1: 17%
CS(=O)(=O)/C=C/CNC(=O)c1ccc([N+](=O)[O-])o1: 21.2%
O=C(N[C@H](/C=C/S(=O)(=O)c1ccccc1)CCc1ccccc1)c1cc(Cl)c([N+](=O)[O-])[nH]1: 26.7%
O=C(NC/C=C/S(=O)(=O)c1ccccc1)c1ccco1: 30.6%
O=C(NC/C=C/S(=O)(=O)c1ccccc1)c1ccc([N+](=O)[O-])o1: 17.7%

Consider the record given below.
Name the recorded inhibition for Cc1ncc([N+](=O)[O-])n1CC(=O)N[C@H](/C=C/S(=O)(=O)c1ccccc1)CCc1ccccc1 . 44.1%

----------
protocol_description: Cytotoxicity against human HepG2 cells assessed as cell growth measured after 72 hrs mby MTT assay
Format: toxicity, cell-based
study_conditions: HepG2 cells
quantity_measured: CC50 at 72 h (µM)
Express your answer in µM, writing the number without its unit.

Name the recorded CC50 at 72 h for O=C(N[C@H](/C=C/S(=O)(=O)c1ccccc1)CCc1ccccc1)c1ccc([N+](=O)[O-])o1 . 5.17

----------
protocol_description: Half life in C57BL/6 mouse at 1 mg/kg, iv measured upto 24 hrs by LC-MS/MS analysis
Assay type: ADME, organism-based
study_conditions: in vivo
quantity_measured: half-life
Don't forget the unit after the value.

Name the recorded half-life for CNC(=O)/C=C/CNC(=O)c1ccc([N+](=O)[O-])s1 . 24 min

----------
protocol_description: Initial plasma concentration in C57BL/6 mouse at 1 mg/kg, iv measured upto 24 hrs by LC-MS/MS analysis
Type: ADME, organism-based
quantity_measured: C0 at 24 h (ng/mL)
Express your answer in ng/mL, writing the number without its unit.

Name the recorded C0 at 24 h for CNC(=O)/C=C/CNC(=O)c1ccc([N+](=O)[O-])s1 . 636

----------
protocol_description: Selectivity index, ratio of CC50 for cytotoxicity against human HepG2 cells to EC50 for Antitrypanosomal activity against bloodstream forms of Trypanosoma brucei brucei strain 427
Assay type: toxicity, cell-based
study_conditions: read-out: Selectivity Index
Reported selectivity ratio values follow for various compounds
Lab note: jot the number down without any unit.

O=C(NC/C=C/S(=O)(=O)c1ccccc1)c1ccc([N+](=O)[O-])o1: 60.6
CNC(=O)/C=C/[C@H](CCc1ccccc1)NC(=O)c1ccc([N+](=O)[O-])s1: 333

Name the recorded selectivity ratio for CS(=O)(=O)/C=C/CNC(=O)c1ccc([N+](=O)[O-])s1 . 154

Name the recorded selectivity ratio for CNC(=O)CCCNC(=O)c1ccc([N+](=O)[O-])s1 . 16.9

----------
Tested on: Trypanosoma brucei rhodesiense
protocol_description: Inhibition of Trypanosoma brucei rhodesiense MVAT4 strain Cathepsin-L expressed in Pichia pastoris at 10 uM relative to control
Active and inactive are the calls of the source. No cut-off for these calls is given here.
quantity_measured: inhibition

CS(=O)(=O)/C=C/CNC(=O)c1ccc([N+](=O)[O-])s1: 23.2%
CNC(=O)CCCNC(=O)c1cccs1: inactive
CNC(=O)/C=C/[C@H](CCc1ccccc1)NC(=O)c1ccc([N+](=O)[O-])s1: 58.4%
CS(=O)(=O)CCCNC(=O)c1cccs1: inactive
